Test system: Rattus norvegicus
Assay: Antiinflammatory activity in Wister Albino rat assessed as inhibition of paw edema at 50 mg/kg, po after 3hrs
Assay type: functional
y means recorded inhibition in vivo at 50 mg/kg is 30% or above; n means it is below 30%.

Here's what some known entries look like.
>>> print(df.to_string())
                            molecularstring         testtarget  assignedclass
0       O=c1c2c3c(sc2nc2sc(=S)[nH]n12)CCCC3  Rattus norvegicus              n
1  Nn1c(SCC(=O)c2cc3ccccc3oc2=O)nc2sc3c(c2c1=O)CCCC3  Rattus norvegicus              n
2  Nn1c(SCC(=O)c2ccccc2)nc2sc3c(c2c1=O)CCCC3  Rattus norvegicus              n
3  O=c1c2c3c(sc2nc2sc(-c4ccc([N+](=O)[O-])cc4)nn12)CCCC3  Rattus norvegicus              y
4  Cc1cc(C)cc(-c2nn3c(=O)c4c5c(sc4nc3s2)CCCC5)c1  Rattus norvegicus              y

Determine whether this compound has inhibition in vivo at 50 mg/kg no lower than 30%: `O=c1c2c3c(sc2nc2sc(-c4ccccc4)nn12)CCCC3`
n

Likewise for `Cc1cccc(-c2nn3c(=O)c4c5c(sc4nc3s2)CCCC5)c1` ?
y

Now the compound `CCc1nn2c(=O)c3c4c(sc3nc2s1)CCCC4`
y

Same again, this time with `Cc1nn2c(=O)c3c4c(sc3nc2s1)CCCC4`
y

----------
Test system: Escherichia coli
Assay: Antibacterial activity against Escherichia coli ATCC 25922 by disc diffusion method
Format: functional
Given measured inhibition zone (IZ), output y if it is greater than or equal to 10 mm and n if not.

molecule	assignedClass
Nn1c(SCC(=O)c2ccc(Cl)cc2)nc2sc3c(c2c1=O)CCCC3	n

// inclusive: inhibition zone (IZ) at least 10 mm? input: `CCCc1nn2c(=O)c3c4c(sc3nc2s1)CCCC4`
y

----------
Measured MIC accompanies every entry in the list below.
Test system: Escherichia coli
Assay: Antibacterial activity against Escherichia coli ATCC 25922 by disc diffusion method
Assay type: functional
Conditions: Escherichia coli, ATCC 25922
// note: answer is a bare numeric in µg/mL

Consider the reported MIC for these compounds:
molecularString	testTarget	MIC / µg/mL
Nn1c(SCC(=O)c2ccc(O)c(O)c2)nc2sc3c(c2c1=O)CCCC3	Escherichia coli	80
O=c1c2c3c(sc2nc2sc(Cc4ccccc4)nn12)CCCC3	Escherichia coli	80
Cc1nn2c(=O)c3c4c(sc3nc2s1)CCCC4	Escherichia coli	10
CCCc1nn2c(=O)c3c4c(sc3nc2s1)CCCC4	Escherichia coli	10
CCc1nn2c(=O)c3c4c(sc3nc2s1)CCCC4	Escherichia coli	80
O=c1c2c3c(sc2nc2sc(-c4ccccc4)nn12)CCCC3	Escherichia coli	100

Could you share which MIC value was measured for `Nn1c(SCC(=O)c2cc3ccccc3oc2=O)nc2sc3c(c2c1=O)CCCC3` ?
12.5

Same read-out for `Cc1cc(C)cc(-c2nn3c(=O)c4c5c(sc4nc3s2)CCCC5)c1` ?
60

----------
inhibition zone (IZ) overview
System: Staphylococcus aureus
Experiment: Antibacterial activity against Staphylococcus aureus ATCC 25923 by disc diffusion method
Type: functional
The reply should read as a number followed by its unit.

The following molecules have reported results that may help.
molecule	testTarget	valueReported
O=c1c2c3c(sc2nc2sc(-c4ccc([N+](=O)[O-])cc4)nn12)CCCC3	Staphylococcus aureus	8 mm
Cc1cc(C)cc(-c2nn3c(=O)c4c5c(sc4nc3s2)CCCC5)c1	Staphylococcus aureus	8 mm
O=c1c2c3c(sc2nc2sc(Cc4ccccc4)nn12)CCCC3	Staphylococcus aureus	8 mm

I am curious: what inhibition zone (IZ) value has been reported for `Cc1cccc(-c2nn3c(=O)c4c5c(sc4nc3s2)CCCC5)c1` ?
20 mm

Next up: `Nn1c(SCC(=O)c2ccc(O)c(O)c2)nc2sc3c(c2c1=O)CCCC3`
16 mm

Next up: `CCc1nn2c(=O)c3c4c(sc3nc2s1)CCCC4`
8 mm

Same for `Nn1c(SCC(=O)c2ccnc(Cl)c2)nc2sc3c(c2c1=O)CCCC3`
10 mm

Entry `Cc1nn2c(=O)c3c4c(sc3nc2s1)CCCC4` please
20 mm

Same thing, different molecule: `CCCc1nn2c(=O)c3c4c(sc3nc2s1)CCCC4`
20 mm

Same read-out for `Nn1c(SCC(=O)c2ccc(Cl)cc2)nc2sc3c(c2c1=O)CCCC3` ?
8 mm

Lookup `O=c1c2c3c(sc2nc2sc(-c4ccccc4)nn12)CCCC3`
18 mm

Repeat for the following molecule: `COc1ccc(C(=O)CSc2nc3sc4c(c3c(=O)n2N)CCCC4)cc1`
8 mm

Param item: `O=c1c2c3c(sc2nc2sc(-c4cc(Cl)cc(Cl)c4)nn12)CCCC3`
8 mm
